system: DEL (T-Cell Non-Hodgkin's Lymphoma); test: Bliss excess, mean over the matrix (fraction); higher = more synergy;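 note: after 72 h of two-drug dosing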
# key: entry, value: Bliss excess

Solved entries:
[
  {
    "Compound": "CC1(C)CCC(CN2CCN(c3ccc(C(=O)NS(=O)(=O)c4ccc(NCC5CCOCC5)c([N+](=O)[O-])c4)c(Oc4cnc5[nH]ccc5c4)c3)CC2)=C(c2ccc(Cl)cc2)C1 [Venetoclax] + C=CCn1c(=O)c2cnc(Nc3ccc(N4CCN(C)CC4)cc3)nc2n1-c1cccc(C(C)(C)O)n1 [AZD1775] (first compound max 1 µM, partner max 1 µM)",
    "Bliss excess": -0.027
  },
  {
    "Compound": "Cc1c2c(nn1C)CSCc1cc(n(C)n1)CSc1cc(c3ccccc3c1)OCCCc1c(C(=O)O)n(C)c3c-2c(Cl)ccc13 [AZD5991] + Cn1cnc2c(F)c(Nc3ccc(Br)cc3Cl)c(C(=O)NOCCO)cc21 [Selumetinib] (first compound max 1 µM, 7x7, partner max 3 µM)",
    "Bliss excess": 0.0049
  },
  {
    "Compound": "Cn1cnc2c(F)c(Nc3ccc(Br)cc3Cl)c(C(=O)NOCCO)cc21 [Selumetinib] + CCN(CCO)CCCOc1ccc2c(Nc3cc(CC(=O)Nc4cccc(F)c4)[nH]n3)ncnc2c1 [AZD2811] (first compound max 10 µM, 7x7, partner max 1 µM)",
    "Bliss excess": 0.263
  }
]

From here, focus on the item given below.
Exam item: I would be grateful if you could share the reported Bliss excess for CCc1c2c(nc3ccc(O)cc13)-c1cc3c(c(=O)n1C2)COC(=O)[C@]3(O)CC [SN-38] + CN(C)CCCOc1ccc(-c2ccc3ncc4c(c3c2)n(C2CCOCC2)c(=O)n4C)cn1 [AZD0156] (first compound max 0.3 µM, 7x7, partner max 1 µM) .
Marked response: 0.117
